Source listed as PubChem BioAssay AID493011.

Target: DNA dC->dU-editing enzyme APOBEC-3A (Homo sapiens)
Assay: blockers of A3A cytidine deamination on DNA – biochemical, FAM/TAMRA oligo cleavage fluorescence, selectivity assay for APOBEC3G inhibitor project, primary screen (AID 493011);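 note: plate controls were A3A with DMSO for no effect and wells lacking A3A enzyme for full effect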
Conditions: recombinant A3A, FAM/TAMRA ssDNA deamination fluorescence; at 20 µM; active compounds read high
Among all 330,000 compounds or so, about 1,400 (0.42%) were called active. The list comes from a sample in which actives are over-represented; it also holds close analogues and randomly drawn compounds.
Entries and their inhibition values follow.
Quick reminder: number only, in %, skip the unit.

What the record says about `Cc1ccc(N(Cc2ccccc2O)C(=O)c2ccccc2F)cc1` : inhibition is 3.92

What the record says about `Cc1ccc(NC(=O)COc2coc(CN3CCc4ccccc4C3)cc2=O)cc1Cl` : inhibition is -2.19

What the record says about `CCN1C(=NCCc2cccnc2)N[C@@H](c2ccccc2)[C@H](C(=O)OC)[C@H]1C` : inhibition is 68.2

What the record says about `CC[C@]12c3[nH]c4cc(CCC(=O)N(C)C)ccc4c3CCN1C(=O)[C@@H](CC(=O)NCc1ccco1)C[C@@H]2C(=O)N1CCN(C(=O)c2ccco2)CC1` : inhibition is 2.69

What the record says about COC(=O)C1=C(C)N(C)C(=S)NC1c1ccccc1 (stereo not drawn) : inhibition is -2.13

What the record says about `CCn1c(=O)c(=O)[nH]c2c(=O)oc3ccc(S(=O)(=O)Nc4ccc(OC)cc4)cc3c21` : inhibition is -3.37

What the record says about COc1cc(C(=O)OCC(=O)NC(C)CCc2ccccc2)cc(OC)c1OC (stereo not drawn) : inhibition is -4.8

What the record says about `CC(C)c1ccc(C(=O)NCCCc2ccccc2)cc1` : inhibition is -3.9

What the record says about CN(CC(=O)Nc1ccc(F)c(F)c1F)C(=O)C1CC(=O)N(C2CCCC2)C1 (stereo not drawn) : inhibition is 0.598

What the record says about O=C(CN1CCOC1=O)N1CCCC(Nc2ccc(F)c(F)c2)C1 (stereo not drawn) : inhibition is -3.28

What the record says about `Cc1cc(/C=N/NC(=O)CC2(C)OCCO2)c(C)n1-c1ccc(Cl)c(Cl)c1` : inhibition is 56.8

What the record says about `COc1ccc(Cl)cc1NC(=O)COC(=O)c1ccc(Br)o1` : inhibition is -2.56

What the record says about `CCN1C(=O)N[C@@H](c2ccccc2)[C@H](C(C)=O)[C@H]1C` : inhibition is -2

What the record says about `Cc1cc2c(=O)n(CC(=O)NCC(=O)Nc3ccc(C(C)C)cc3)cnc2s1` : inhibition is -11.2

What the record says about `O=[N+]([O-])c1cc(S(=O)(=O)N2CCCC2)ccc1NN=C1CCCC1` : inhibition is -1.16

What the record says about `COC(=O)C1=C(C)N(Cc2ccccc2)C(=NCCCOC(C)C)N[C@H]1c1ccccc1` : inhibition is 45.5
